Values were extracted from ChEMBL document CHEMBL5104175.

- tested-on: Induced myeloid leukemia cell differentiation protein Mcl-1 (Homo sapiens, UniProt Q07820)
- Sequence (Q07820 whole entry): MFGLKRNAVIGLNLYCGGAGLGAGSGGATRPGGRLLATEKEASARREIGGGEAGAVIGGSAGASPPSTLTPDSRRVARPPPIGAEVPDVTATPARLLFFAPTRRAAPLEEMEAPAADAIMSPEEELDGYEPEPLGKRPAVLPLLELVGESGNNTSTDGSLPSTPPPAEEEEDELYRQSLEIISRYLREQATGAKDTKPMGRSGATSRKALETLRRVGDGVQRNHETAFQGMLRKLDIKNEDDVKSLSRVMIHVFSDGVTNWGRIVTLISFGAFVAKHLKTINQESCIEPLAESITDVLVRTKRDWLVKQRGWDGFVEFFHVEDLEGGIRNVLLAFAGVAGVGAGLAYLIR
- measurement-protocol: Inhibition of MCL-1 (unknown origin) by fluorescence polarization competition assay
assay-metric: Ki (nM)

Worked examples, 3 molecules total:
>  <item-smiles>
Cc1cc(Oc2ccc(Cn3nc4ccc(Cl)cc4c3C(=O)NS(=O)(=O)c3ccc([N+](=O)[O-])c(NCc4cccnc4)c3)cc2)cc(C)c1Cl

>  <assay-metric>
Ki

>  <measurement-units>
nM

>  <reported-value>
1000

$$$$
>  <item-smiles>
Cc1cc(Oc2ccc(Cn3nc4ccc(Cl)cc4c3C(=O)NS(=O)(=O)c3ccc(NCc4ccncc4)c([N+](=O)[O-])c3)cc2)cc(C)c1Cl

>  <assay-metric>
Ki

>  <measurement-units>
nM

>  <reported-value>
1650

$$$$
>  <item-smiles>
Cc1cc(Oc2ccc(Cn3nc4ccc(Cl)cc4c3C(=O)NS(=O)(=O)c3ccc(NCCc4ccco4)c([N+](=O)[O-])c3)cc2)cc(C)c1Cl

>  <assay-metric>
Ki

>  <measurement-units>
nM

>  <reported-value>
1280

$$$$

a: Cc1cc(Oc2ccc(Cn3nc4ccc(Cl)cc4c3C(=O)NS(=O)(=O)c3ccc([N+](=O)[O-])c(NCCc4cccnc4)c3)cc2)cc(C)c1Cl
b: Cc1cc(Oc2ccc(Cn3nc4ccc(Cl)cc4c3C(=O)NS(=O)(=O)c3ccc([N+](=O)[O-])c(NCCc4ccco4)c3)cc2)cc(C)c1Cl
Of a and b , which one carries the higher reported Ki? Indicate your choice by writing its label.
b
(b: 2160 nM, a: 1460 nM)

###

- tested-on: Induced myeloid leukemia cell differentiation protein Mcl-1 (Homo sapiens)
- measurement-protocol: Inhibition of MCL-1 (unknown origin) by fluorescence polarization competition assay
assay-metric: Ki (nM)

>  <item-smiles>
Cc1cc(Oc2ccc(Cn3nc4ccc(Cl)cc4c3C(=O)NS(=O)(=O)c3ccc([N+](=O)[O-])c(NCc4ccn(C)n4)c3)cc2)cc(C)c1Cl

>  <tested-on>
Induced myeloid leukemia cell differentiation protein Mcl-1 (Homo sapiens)

>  <Ki / nM>
1950

$$$$
>  <item-smiles>
Cc1cc(Oc2ccc(Cn3nc4ccc(Cl)cc4c3C(=O)NS(=O)(=O)c3ccc(NCCc4ccncc4)c([N+](=O)[O-])c3)cc2)cc(C)c1Cl

>  <tested-on>
Induced myeloid leukemia cell differentiation protein Mcl-1 (Homo sapiens)

>  <Ki / nM>
1770

$$$$
>  <item-smiles>
Cc1cc(Oc2ccc(Cn3nc4ccc(Cl)cc4c3C(=O)NS(=O)(=O)c3ccc([N+](=O)[O-])c(NCCc4ccncc4)c3)cc2)cc(C)c1Cl

>  <tested-on>
Induced myeloid leukemia cell differentiation protein Mcl-1 (Homo sapiens)

>  <Ki / nM>
1420

$$$$

###

Bcl-2-like protein 1 (Homo sapiens, UniProt Q07817): recorded Ki for assorted molecules
Sequence (Q07817 whole entry): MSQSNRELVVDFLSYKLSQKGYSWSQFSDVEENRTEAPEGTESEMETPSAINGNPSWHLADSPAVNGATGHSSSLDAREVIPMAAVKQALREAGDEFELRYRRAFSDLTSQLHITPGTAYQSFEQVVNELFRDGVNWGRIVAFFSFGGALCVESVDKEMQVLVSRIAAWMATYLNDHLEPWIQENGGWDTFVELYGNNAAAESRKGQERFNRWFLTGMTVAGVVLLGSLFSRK

Worked examples, 3 molecules total:
>  <item-smiles>
Cc1cc(Oc2ccc(Cn3nc4ccc(Cl)cc4c3C(=O)NS(=O)(=O)c3ccc(NCc4ccncc4)c([N+](=O)[O-])c3)cc2)cc(C)c1Cl

>  <reported-value>
> 10 µM

$$$$
>  <item-smiles>
Cc1cc(Oc2ccc(Cn3nc4ccc(Cl)cc4c3C(=O)NS(=O)(=O)c3ccc(NCCc4cccnc4)c([N+](=O)[O-])c3)cc2)cc(C)c1Cl

>  <reported-value>
> 10 µM

$$$$
>  <item-smiles>
Cc1cc(Oc2ccc(Cn3nc4ccc(Cl)cc4c3C(=O)NS(=O)(=O)c3ccc(NCc4ccn(C)n4)c([N+](=O)[O-])c3)cc2)cc(C)c1Cl

>  <reported-value>
3.45 µM

$$$$

Known value: Bcl-2-like protein 1 (Homo sapiens, UniProt Q07817) Ki of the molecule Cc1cc(Oc2ccc(Cn3nc4ccc(Cl)cc4c3C(=O)NS(=O)(=O)c3ccc([N+](=O)[O-])c(NCc4ccncc4)c3)cc2)cc(C)c1Cl equals > 10 µM
